Numbers sourced from patent US20180066015A1.

Reported values of pKi for individual entries
Target: Hepatocyte Growth Factor Activator (HGFA) serine protease domain, N-terminal His-tag, recombinant (Homo sapiens (Human)) (UniProt Q04756)
Test: fluorogenic inhibition assay
Starred links: 1 amine or outer side, 2 acyl side, 3 side chain; linkers in the order of their positions; H or OH if unused. No end group written: not given here. *: point of attachment. Kbt‑6‑CONH = ketobenzothiazole-6-CONH (amide link to Val), O=C(c1ccc2nc([*:1])sc2c1)[*:2]; kbt‑6‑COOH = ketobenzothiazole-6-COOH, O=C(O)c1ccc2nc(*)sc2c1; Kbt = ketobenzothiazole, c1ccc2sc(*)nc2c1; kt = C-terminal ketothiazole, c1csc(*)n1
Worth noting: pKi values are minus log10 of concentrations stated in mol/L.

Task: Name the reported pKi value associated with the binder Ac-KRLR-{Kbt‑6‑CONH-Val-NH2} [Ac-KRLR(SEQ ID NO: 8)-Kbt-Val-NH2]
Result: 8.23

***
Task: Name the reported pKi value associated with the binder Ac-SKLR-{kbt‑6‑COOH} (SMILES CC(=O)N[C@@H](CO)C(=O)N[C@@H](CCCCN)C(=O)N[C@@H](CC(C)C)C(=O)N[C@@H](CCCNC(=N)N)C(=O)c1nc2ccc(C(=O)O)cc2s1) [Ac-SKLR(SEQ ID NO: 10)-Kbt-COOH]
Result: 6.88

Task: Name the reported pKi value associated with the binder Ac-RKLR-kt (SMILES CC(=O)N[C@@H](CCCNC(=N)N)C(=O)N[C@@H](CCCCN)C(=O)N[C@@H](CC(C)C)C(=O)N[C@@H](CCCNC(=N)N)C(=O)c1nccs1) [Ac-RKLR(SEQ ID NO: 18)-kt]
Result: 7.77

Task: Name the reported pKi value associated with the binder Ac-SKLR (not fully specified (C-terminus)) [Ac-SKLR(SEQ ID NO: 10)-Kbt-Phe-NH2]
Result: 7.76

Task: Name the reported pKi value associated with the binder Ac-KRLR-Kbt (SMILES CC(=O)N[C@@H](CCCCN)C(=O)N[C@@H](CCCNC(=N)N)C(=O)N[C@@H](CC(C)C)C(=O)N[C@@H](CCCNC(=N)N)C(=O)c1nc2ccccc2s1) [Ac-KRLR(SEQ ID NO: 8)-Kbt]
Result: 8.22
